Assay: Plasma and brain concentration in samples of in vivo IP1 assay
Set-up: species or system mouse
Conditions: mouse, brain, oral, 3 mg/kg, 3 mg/kg p.o., M1KO mice, 3 h, mean±SD; read-out: Brain concentration
measured-metric: concentration at 3 h

compound-string	measured-metric	meas-value
Cc1c(Cc2ccc(-n3cccn3)cc2)cc2c(c1F)CN([C@H]1COCC[C@@H]1O)C2=O	concentration at 3 h	370 ng/g

* * *

Test: Plasma and brain concentration in samples of in vivo IP1 assay
Set-up: species or system mouse
Settings: mouse, brain, oral, 3 mg/kg, 3 mg/kg p.o., wild-type mice, 3 h, mean±SD; read-out: Brain concentration
Method: Plasma and brain concentration of Compound D in sample of in vivo IP1 assay at 3 h after oral treatment. Results represent the mean±SD. n=10 per group. Plasma and brain concentration of Compound C in sample of in vivo IP1 assay at 3 h after oral treatment. Results represent the mean±SD. n=10 per group.

compound-string	concentration at 3 h [ng/g]
Cc1c(Cc2ccc(-n3cccn3)cc2)cc2c(c1F)CN([C@H]1COCC[C@@H]1O)C2=O	350
